System: EKVX
Assay: NCI tumour cell line growth inhibition, 48 h
The source made the active and inactive calls. No stated cut-off is given here; in the data, active = GI50 up to about 1.1 µM and inactive = higher.
Pick one and only one: active, inactive

Solved entries:
compound	class
NC(=O)c1ccc(NS(=O)(=O)c2ccc(N)cc2)nc1	inactive
O=C1NC(=O)C(CCO)(c2ccccc2)C(=O)N1	inactive
CS(=O)(=O)O[C@H]1CN2C[C@@H](O)[C@@H](O)[C@H]2[C@H]1CO.[B]	inactive
CCOc1ccc(/N=C/c2ccc3ccccc3n2)cc1	inactive

Challenge: I'd appreciate the recorded outcome for O=C1/C(=C\c2cccc(Oc3ccccc3)c2)SC(c2ccccc2)N1c1ccccc1Cl (stereo unspecified) from this test.
Response given: inactive

Challenge: I'd appreciate the recorded outcome for COC(=O)[C@@H]1CN(C(C)=O)C(=O)N1 from this test.
Response given: inactive

Challenge: I'd appreciate the recorded outcome for Cc1cc2c(c3oc(C(O)(CO)C4CO4)cc(=O)c13)C(=O)c1c(O)cccc1C2=O (stereo unspecified) from this test.
Response given: active

* * *

Test system: MOLT-4
Assay: NCI tumour cell line growth inhibition, 48 h
Active and inactive are the calls of the source. Rule as the data show it: active = GI50 up to about 1.1 µM and inactive = higher.
measurement-label: GI50

compound	tested-on	measurement-label	measured
COc1ccccc1-n1c(NN)nc2ccc(Br)cc2c1=O	MOLT-4	GI50	26.2 µM (inactive)
COC(=O)c1ccc([N+](=O)[O-])c(O)c1	MOLT-4	GI50	> 100 µM (inactive)
Cc1ccc(NC(=O)/C(=N/N(C)C)C(C2OC(=O)c3ccccc32)[N+](=O)[O-])cc1 (configuration not stated)	MOLT-4	GI50	> 100 µM (inactive)
CCC1OC2C(CC=C(C)C)=C3OC(C)(O)C(C)(CC)C(OC(C)=O)C3=C3OC(=O)C=C1C32 (configuration not stated)	MOLT-4	GI50	22.7 µM (inactive)

Challenge: Answer with the recorded GI50 for the compound listed here: N/C=N/S(=O)(=O)c1ccc(NC(=O)COC(=O)c2cccc3c(=O)c4ccccc4[nH]c23)cc1
Response given: > 100 µM (inactive)

Challenge: Answer with the recorded GI50 for the compound listed here: CC(C)(C)OC(=O)N1C(OP(=O)(Oc2ccccc2)Oc2ccccc2)=CSc2ccccc21
Response given: 20.1 µM (inactive)

Challenge: Answer with the recorded GI50 for the compound listed here: N#Cc1c(O)c(C=O)c(=O)n2c1[nH]c1ccccc12
Response given: > 100 µM (inactive)

Challenge: Answer with the recorded GI50 for the compound listed here: CC(=O)OC1C(COC(=O)c2ccccc2)OC(Nc2ncc(-c3ccc(Br)cc3)s2)C(OC(=O)c2ccccc2)C1OC(=O)c1ccccc1 (configuration not stated)
Response given: > 100 µM (inactive)

* * *

Form field: GI50 (one value per entry).
Tested on: U-251
Test: NCI tumour cell line growth inhibition, 48 h
Activity calls are given as the source filed them. No stated cut-off is given here; in the data, active = GI50 up to about 1.1 µM and inactive = higher.

// solved cases for GI50 follow
compound	tested-on	measurement-label	measured
N#CCSc1c(-c2ccccc2)c(=O)n(-c2ccccc2)c(=S)n1-c1ccccc1	U-251	GI50	> 100 µM (inactive)
COC(=O)c1sc(=S)sc1SCc1ccccc1CSc1sc(=S)sc1C(=O)OC	U-251	GI50	> 100 µM (inactive)
Cc1ccc(S(=O)(=O)n2c3c(c4ccccc42)CCN2C[C@H]([C@H](C)Br)CC[C@@H]32)cc1	U-251	GI50	> 100 µM (inactive)
Cn1c(=O)c(C(=O)NC(=O)OCc2ccccc2)cn(CCSCCOC(=O)NCCCCCCNC(=O)OCCSCCn2cc(C(=O)NC(=O)OCc3ccccc3)c(=O)n(C)c2=O)c1=O	U-251	GI50	63.4 µM (inactive)
CC(=O)Oc1ccc2c(c1)oc1c3ccc(OC(C)=O)cc3n(C)c(=O)c21	U-251	GI50	55 µM (inactive)

Challenge: Answer with the recorded GI50 for the compound listed here: CCCc1cc(=O)oc2c3c(c4c(c12)OC(C)(C)C=C4)O[C@@H](C)[C@H](C)C3=O
Response given: 23.4 µM (inactive)

Challenge: Answer with the recorded GI50 for the compound listed here: C#CCN(Cc1ccc2nc(OC)c(OC)nc2c1)c1cc(OC)c(OC)c(OC)c1
Response given: 23.9 µM (inactive)

Challenge: Answer with the recorded GI50 for the compound listed here: CN(CCCN1CCCC1)CCCN(C)C(=O)Cc1ccc(Cl)c(Cl)c1
Response given: 14.9 µM (inactive)

Challenge: Answer with the recorded GI50 for the compound listed here: CS(=O)(=O)O[C@H]1CN2C[C@@H](O)[C@@H](O)[C@H]2[C@H]1CO.[B]
Response given: > 100 µM (inactive)

Challenge: Answer with the recorded GI50 for the compound listed here: COc1ccc(N2C(=O)/C(=C\c3cc(OC)c(OC)c(OC)c3)S(=O)(=O)C2c2ccccc2)cc1 (centres undefined)
Response given: 11.3 µM (inactive)

Challenge: Answer with the recorded GI50 for the compound listed here: CCc1[nH]nc(C(N)=O)c1/N=N/N(C)C
Response given: 48.3 µM (inactive)

Challenge: Answer with the recorded GI50 for the compound listed here: CCOC(=O)CCC(NC(=O)c1ccc(Nc2nc3ccccc3nc2-c2cccs2)cc1)C(=O)OCC (centres undefined)
Response given: 27.4 µM (inactive)

* * *

Form field: GI50 (one value per entry).
Tested on: TK-10
Assay: NCI tumour cell line growth inhibition, 48 h
Active and inactive are the calls of the source. No stated cut-off is given here; in the data, active = GI50 up to about 1.1 µM and inactive = higher.

// solved cases for GI50 follow
molecule	GI50
CC(C)(C)[Si](C)(C)OCC1OC(n2cc(F)c(=O)[nH]c2=O)CC1O[Si](C)(C)C(C)(C)C (centres undefined)	2.84 µM (inactive)
Cc1cc(Cl)ccc1N1C(=O)C(=O)C(c2nc3ccccc3s2)C(=O)C1=O	> 100 µM (inactive)
CC(=O)/C(=C\c1ccccc1O)C(=O)Nc1ccccc1C	> 10 µM (inactive)
COc1nc2c(c(=O)n1C)NC(C(O)C(O)CO)C=N2 (centres undefined)	> 10 µM (inactive)

Challenge: Answer with the recorded GI50 for the molecule listed here: CCOP(=O)(CCCC(O)CNc1cc(Cl)nc(N)n1)OCC (centres undefined)
Response given: > 100 µM (inactive)

Challenge: Answer with the recorded GI50 for the molecule listed here: Cc1c(C(=O)OCc2ccccc2)[n+]([O-])c2cc(Cl)c(Cl)cc2[n+]1[O-]
Response given: 18.7 µM (inactive)

Challenge: Answer with the recorded GI50 for the molecule listed here: C[C@]12CC[C@@H]3c4ccc(OC(=O)c5ccccc5)cc4CC[C@H]3[C@@H]1CCC2OC(=O)c1cccc2c(=O)c3ccccc3[nH]c12 (some centres undefined)
Response given: 19.1 µM (inactive)

Challenge: Answer with the recorded GI50 for the molecule listed here: O=S1(=O)CCCS(=O)(=O)C(c2ccccc2)=C1c1ccccc1
Response given: > 100 µM (inactive)

Challenge: Answer with the recorded GI50 for the molecule listed here: CS(=O)(=O)CC1=Nc2nnc(CCCCCCCc3nnc4n3C(=O)C(CS(C)(=O)=O)=N4)n2C1=O
Response given: > 100 µM (inactive)

* * *

Form field: GI50 (one value per entry).
System: UO-31
Assay: NCI tumour cell line growth inhibition, 48 h
The source made the active and inactive calls. No stated cut-off is given here; in the data, active = GI50 up to about 1.1 µM and inactive = higher.

// solved cases for GI50 follow
molecule	GI50
NC(=O)Nc1c(Cl)cc(S(N)(=O)=O)cc1Cl	> 100 µM (inactive)
COc1cc(C(C)O)c[n+](CCc2c[nH]c3ccccc23)c1 (configuration not stated)	> 100 µM (inactive)
O=C1/C(=C/c2cccnc2)C(n2cccc2)c2c(Br)sc(Br)c21 (configuration not stated)	1.78 µM (inactive)
Clc1ccc2nc3c(c(-c4ccccc4)nn3-c3ccccc3)c(-c3ccccc3)c2c1	> 100 µM (inactive)
N#Cc1ccc(C2SCc3nc4ccccc4n32)cc1 (configuration not stated)	15.2 µM (inactive)
COc1nc2c(c(=O)n1C)NC(C(O)C(O)CO)C=N2 (configuration not stated)	> 10 µM (inactive)
Cc1ccc(S(=O)(=O)N(C=O)N=C2CCN(Cc3ccccc3)CC2)cc1	> 100 µM (inactive)
O=C(CNC(=O)OCc1ccccc1)Oc1ccccc1	> 100 µM (inactive)

Challenge: Answer with the recorded GI50 for the molecule listed here: C/C(=N/S(=O)(=O)c1ccc(Cl)c(Cl)c1)OCC(C)(C)C
Response given: > 100 µM (inactive)

Challenge: Answer with the recorded GI50 for the molecule listed here: CCCCCCC1OC23OC1CCC2C(O)CCC3O (configuration not stated)
Response given: > 100 µM (inactive)

Challenge: Answer with the recorded GI50 for the molecule listed here: CSc1ncnc2c1ncn2CCC#N
Response given: > 100 µM (inactive)

Challenge: Answer with the recorded GI50 for the molecule listed here: COc1cccc(C=C(C#N)C#N)c1OC
Response given: > 100 µM (inactive)

* * *

System: MDA-MB-231
Experiment: NCI tumour cell line growth inhibition, 48 h
Calls of active or inactive are those of the source. No stated cut-off is given here; in the data, active = GI50 up to about 1.1 µM and inactive = higher. Non-standard residues stand in square brackets, D forms with d. Residues, ends and D or L forms follow the SMILES beside them. ξ: configuration not given here. Pentanoyl(2-O,4-OH,5-Cl) = O=C(O)C(O)CC(O)CCl; Ile(3ξ) = CCC(C)[C@H](N)C(=O)O; NMeV = CN[C@H](C(=O)O)C(C)C; NMeA = CN[C@@H](C)C(=O)O; βAla = NCCC(=O)O
measurement-label: GI50

// solved cases for GI50 follow
compound	measured
CC[C@]1(Cc2ccc(OC)c(OC)c2)C=[N+]([O-])O[C@H](OC2CCCC2(c2ccccc2)c2ccccc2)[C@@H]1OC(C)=O (some centres not stated)	11 µM (inactive)
OC(O)(C(F)(F)F)C(F)(F)F	> 100 µM (inactive)
O=c1c2ccccc2[nH]c2c(Cl)cc(Cl)c(N3CCCCC3)c12	33.6 µM (inactive)
COc1ccc(-c2c(C#N)c(O)n(NS(=O)(=O)c3ccc(C)cc3)c(=O)c2C#N)cc1	> 100 µM (inactive)
O=C(c1ccco1)N1CCN(C(=O)c2ccco2)C1=S	11.6 µM (inactive)

Challenge: Answer with the recorded GI50 for the compound listed here: N=C(N)c1ccc(/N=N\c2c(O)ccc3cc4c(/N=N\c5ccc(C(=N)N)cc5)c(O)ccc4cc23)cc1
Response given: 29 µM (inactive)

Challenge: Answer with the recorded GI50 for the compound listed here: Cc1coc2c1C(=O)C(=O)c1c-2ccc2c1CCCC2(C)C [TANSHINONE IIA]
Response given: 21.8 µM (inactive)

Challenge: Answer with the recorded GI50 for the compound listed here: CC(C)(C)/N=c1/n(C(C)(C)C)oc(=O)n1C(C)(C)C
Response given: > 100 µM (inactive)

Challenge: Answer with the recorded GI50 for the compound listed here: COC(=O)C(/C(=N/N)C(=O)Nc1cc(Cl)c(Cl)cc1Cl)c1nc2ccc(Cl)cc2nc1O (configuration not stated)
Response given: > 100 µM (inactive)

Challenge: Answer with the recorded GI50 for the compound listed here: N#Cc1nc(C(=O)c2ccccc2)oc1N
Response given: > 100 µM (inactive)

Challenge: Answer with the recorded GI50 for the compound listed here: COC1OC(C)C(NC(=O)OCC(Cl)(Cl)Cl)C2OC(C)(C)OC12 (configuration not stated)
Response given: > 100 µM (inactive)

Challenge: Answer with the recorded GI50 for the compound listed here: CCCCN(C(=O)c1ccccc1)C1CCC(=O)c2[nH]c3ccccc3c21 (configuration not stated)
Response given: 23.7 µM (inactive)

Challenge: Answer with the recorded GI50 for the compound listed here: C#CC1=CC(=O)C(OC)=CC1=O
Response given: 16.4 µM (inactive)

Challenge: Answer with the recorded GI50 for the compound listed here: CCC(C)[C@@H]1NC(=O)[C@@H]2CCCN2C(=O)C(CC(O)CCl)OC(=O)CCNC(=O)[C@H](C)N(C)C(=O)[C@H](C(C)C)N(C)C1=O (some centres not stated) (cyclo([Ile(3ξ)][NMeV][NMeA][βAla][Pentanoyl(2-O,4-OH,5-Cl)]P))
Response given: > 47.5 µM (inactive)

Challenge: Answer with the recorded GI50 for the compound listed here: Cc1ccc(C(=O)Nc2ccc(CP(=O)(O)O)cc2CP(=O)(O)O)cc1NC(=O)c1cccc(N)c1
Response given: > 100 µM (inactive)

Challenge: Answer with the recorded GI50 for the compound listed here: COc1c(-c2nc3ccc(N4CCN(C)CC4)nc3[nH]2)cc(OC)c2[nH]c(COC(C)=O)nc12
Response given: 17.9 µM (inactive)

Source of measurements: ChEMBL document CHEMBL1201862
